The following are reported log10 of Ki results, target or system hCB2R (Homo sapiens, UniProt P34972).
Measured property: log10 of Ki (log10 of the value in nM)

INSERT INTO results (compound, result) VALUES
  ('CCC(CC)(NC(=O)c1ccc(C2CC2)c(Cc2ccc(F)cc2)n1)C(=O)NCCOCCNC(=O)OC(C)(C)C [Compound 10a]', 1.45),
  ('CCC(CC)(NC(=O)c1ccc(C2CC2)c(Cc2ccc(F)cc2)n1)C(=O)NCCOCCOCCOCCNC(=O)OC(C)(C)C [Compound 10c]', 1.80),
  ('CCC(CC)(NC(=O)c1ccc(C2CC2)c(Cc2ccc(F)cc2)n1)C(=O)NCCOCCOCCNC(=O)OC(C)(C)C [Compound 10b]', 0.78),
  ('CCC(CC)(NC(=O)c1ccc(C2CC2)c(Cc2ccc(F)cc2)n1)C(=O)NCCOCCOCCOCCOCCNC(=O)OC(C)(C)C [Compound 10d]', 2.16),
  ('CCC(CC)(NC(=O)c1ccc(N2CC(OC)C2)c(OC[C@H]2C[C@@H]2CO)n1)C(=O)NCCOCCOCCNC(=O)OC(C)(C)C [Compound 11b]', 2.03),
  ('CCC(CC)(NC(=O)c1ccc(N2CC(OC)C2)c(OC[C@H]2C[C@@H]2CO)n1)C(=O)NCCOCCNC(=O)OC(C)(C)C [Compound 11a]', 3.31);

* * *

pKi: −log10 of the molar value.
The following are reported pKi results, target or system hCB1R (Homo sapiens).
Measured property: pKi

INSERT INTO measurements (compound, measured_property, qualifier_sign, result) VALUES
  ('CCC(CC)(NC(=O)c1ccc(N2CC(OC)C2)c(OC[C@H]2C[C@@H]2CO)n1)C(=O)NCCOCCOCCOCCNC(=O)OC(C)(C)C [Compound 11c]', 'pKi', '<', 5.00),
  ('CCC(CC)(NC(=O)c1ccc(C2CC2)c(Cc2ccc(F)cc2)n1)C(=O)NCCOCCOCCOCCNC(=O)OC(C)(C)C [Compound 10c]', 'pKi', '=', 6.13),
  ('CCC(CC)(NC(=O)c1ccc(C2CC2)c(Cc2ccc(F)cc2)n1)C(=O)NCCOCCOCCNC(=O)OC(C)(C)C [Compound 10b]', 'pKi', '=', 6.33),
  ('CCC(CC)(NC(=O)c1ccc(N2CC(OC)C2)c(OC[C@H]2C[C@@H]2CO)n1)C(=O)NCCOCCNC(=O)OC(C)(C)C [Compound 11a]', 'pKi', '<', 5.00),
  ('CCC(CC)(NC(=O)c1ccc(C2CC2)c(Cc2ccc(F)cc2)n1)C(=O)NCCOCCOCCOCCOCCNC(=O)OC(C)(C)C [Compound 10d]', 'pKi', '=', 5.83),
  ('CCC(CC)(NC(=O)c1ccc(N2CC(OC)C2)c(OC[C@H]2C[C@@H]2CO)n1)C(=O)NCCOCCOCCNC(=O)OC(C)(C)C [Compound 11b]', 'pKi', '<', 5.00),
  ('CCC(CC)(NC(=O)c1ccc(C2CC2)c(Cc2ccc(F)cc2)n1)C(=O)NCCOCCNC(=O)OC(C)(C)C [Compound 10a]', 'pKi', '=', 6.08);

* * *

Experimental system: hCB2R (Homo sapiens, UniProt P34972)
Sequence (P34972 whole entry): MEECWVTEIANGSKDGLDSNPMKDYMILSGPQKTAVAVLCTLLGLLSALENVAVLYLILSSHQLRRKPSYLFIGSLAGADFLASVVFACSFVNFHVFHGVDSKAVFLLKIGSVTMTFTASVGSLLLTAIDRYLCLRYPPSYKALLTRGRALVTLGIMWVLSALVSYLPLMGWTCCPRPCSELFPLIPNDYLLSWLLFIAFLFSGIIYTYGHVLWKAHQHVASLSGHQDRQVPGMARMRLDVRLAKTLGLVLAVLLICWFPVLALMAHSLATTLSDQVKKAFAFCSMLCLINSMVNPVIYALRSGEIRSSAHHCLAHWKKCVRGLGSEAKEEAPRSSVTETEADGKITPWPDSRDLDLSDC
Assay comment: HTRF cAMP assay in CHO cells stably expressing hCB2R
Type: cell-based
Settings: EC50 (column EC50 or IC50), agonists, HTRF cAMP assay, cells stably expressing hCB2R
Measured property: EC50 (nM)

INSERT INTO assay_data (molecule, experimental_system, measured_property, result) VALUES
  ('CCC(CC)(NC(=O)c1ccc(C2CC2)c(Cc2ccc(F)cc2)n1)C(=O)NCCOCCOCCNC(=O)OC(C)(C)C [Compound 10b]', 'hCB2R (Homo sapiens, UniProt P34972)', 'EC50', 49),
  ('CCC(CC)(NC(=O)c1ccc(C2CC2)c(Cc2ccc(F)cc2)n1)C(=O)NCCOCCOCCNC(=O)c1ccc2c(c1)C(=O)OC21c2ccc(N)c(S(=O)(=O)O)c2Oc2c1ccc(N)c2S(=O)(=O)O', 'hCB2R (Homo sapiens, UniProt P34972)', 'EC50', 77),
  ('CCC(CC)(NC(=O)c1ccc(C2CC2)c(Cc2ccc(F)cc2)n1)C(=O)NCCOCCOCCNC(=O)c1ccc2c(c1)C1(OC2=O)c2ccc(N(C)C)cc2[Si](C)(C)c2cc(N(C)C)ccc21', 'hCB2R (Homo sapiens, UniProt P34972)', 'EC50', 528);
